Source of measurements: ChEMBL document CHEMBL4513216

# Test system: Plasmodium berghei
# assay_name: Screen against P. berghei liver stage (PbLuc), transformed with Luciferase, at 2uM
# Format: functional, HepG2
# assay_context: tested at 2 uM
The campaign covered roughly 68,000 compounds. About 2,700 (4%) showed an effect of 50% or more. What follows is part of a selection rich in strong results, with near analogues and random picks from the rest.
# INHIBITION annotations
Response body: numeric value in %, unit text excluded.

{"molecule": "Cc1nc2c(c(NC3CC3)n1)CCN(C(=O)C1(C#N)CC1)CC2", "assayed_system": "Plasmodium berghei", "quantity": "INHIBITION", "measured_number": -5.44}
{"molecule": "COCCN1CC[C@@H]2O[C@@H](COCC(=O)N3CCCC3)CC[C@@H]21", "assayed_system": "Plasmodium berghei", "quantity": "INHIBITION", "measured_number": -14.49}
{"molecule": "CC(C)OCc1cccc(NC(=O)N(C)Cc2ncnn2C)c1", "assayed_system": "Plasmodium berghei", "quantity": "INHIBITION", "measured_number": 31.51}
{"molecule": "Cc1ccc2c(c1)C(=O)NCC1(CCN(C(=O)c3csc(C)c3)CC1)O2", "assayed_system": "Plasmodium berghei", "quantity": "INHIBITION", "measured_number": 38.75}
{"molecule": "CC(C)NC1CCc2c(ccc(=O)n2CCN2CCOCC2)C1 (configuration not stated)", "assayed_system": "Plasmodium berghei", "quantity": "INHIBITION", "measured_number": -21.78}

Fill blank: measured INHIBITION of the molecule CCc1nnc(SC2CCCN(c3cccc(F)c3)C2=O)n1C (configuration not stated) is ____. 77.68

For the molecule CN(C)CCN1CC[C@@H]2O[C@@H](COCC(=O)N3CCCC3)CC[C@@H]21 , what INHIBITION is on record? -30.82
